The reported numbers originate from patent US20250026827A1.

Molecular target: T1, mouse SIRPα on cells (mouse, UniProt P97797 32-513)
T1 construct: whole, on cells
T1 sequence (looked up): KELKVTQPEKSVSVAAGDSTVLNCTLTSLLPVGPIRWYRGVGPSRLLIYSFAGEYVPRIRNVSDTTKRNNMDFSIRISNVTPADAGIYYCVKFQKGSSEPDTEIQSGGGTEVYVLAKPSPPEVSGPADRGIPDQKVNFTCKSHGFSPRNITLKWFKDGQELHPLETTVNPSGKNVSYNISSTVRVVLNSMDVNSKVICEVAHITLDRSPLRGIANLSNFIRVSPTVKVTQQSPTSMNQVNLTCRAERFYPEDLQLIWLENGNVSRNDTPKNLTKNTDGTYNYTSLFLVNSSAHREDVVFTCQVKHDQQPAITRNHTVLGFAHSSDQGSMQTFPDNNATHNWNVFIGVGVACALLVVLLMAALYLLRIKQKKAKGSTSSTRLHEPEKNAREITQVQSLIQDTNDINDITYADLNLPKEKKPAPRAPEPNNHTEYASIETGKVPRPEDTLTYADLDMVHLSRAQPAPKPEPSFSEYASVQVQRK
Assay: flow cytometry;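 also: antibodies tested at 1 µg/ml for 30 min on ice against receptor-expressing cells, detected with a PE-labelled secondary antibody, read as mean fluorescence intensity relative to background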
METRIC NAME: FOB (fold over background)
Number only, in fold over background; omit the unit.

## Input Retrieve FOB measured for SB-30 (antibody, V domains shown, IgG) VH: QVQLQESGPGLVKPSQTLSLTCTVSGGSISSGGYYWSWIRQHPGKGLEWIGYIYYSGSTVYNPSLKSRVTISVDTSKNQFSLKLSSVTAADTAVYYCAREGPGYPSYFDPWGQGTLVTVSS VL: EIVLTQSPGTLSLSPGERATLSCRASQSVSSSFLAWYQQKPGQAPRLLIYGASSRATGIPDRFSGSGSGTDFTLTISRLEPEDFAVYYCQQFLSSPWTFGGGTKVENQ and print it.
## Output 1.5
